Test system: human red blood cells
testProtocol: Detection of hemolytic activity
Type: cell-based
protocolConditions: human red blood cells, 37° C., 2h; first concentration with ODtest-OD negative >0.1
MHC: recorded values

CC1(C)CC(NC(=O)C(Cc2ccc(-c3ccccc3)cc2)NC(=O)Cc2ccccc2Nc2c(Cl)cccc2Cl)CC(C)(C)N1 (stereo not drawn) [PL-AC-203] ... 2000 µg/mL

Q: # MHC lookup, item CC(C(=O)NC(Cc1ccc(-c2ccccc2)cc1)C(=O)NC1CC(C)(C)NC(C)(C)C1)c1cccc(C(=O)c2ccccc2)c1 (stereo not drawn) [PL-AC-206]
Result: 3000 µg/mL

Q: Param item: C/C(=C1/c2ccc(F)cc2C(CC(=O)NC(Cc2ccc(-c3ccccc3)cc2)C(=O)NC2CC(C)(C)NC(C)(C)C2)C1C)c1ccc([S+](C)[O-])cc1 (stereo not drawn) [PL-AC-204]
Result: 3000 µg/mL

Data credit: patent US12552747B2
